Data credit: patent US7494714B2

Target: UniProt:P00698
Assay: SPR adsorption of lysozyme to SAMs / grafted polymer films
Format: binding
Details: lysozyme; single-component SAMs (a) and mixed SAMs (b)
Where a SMILES comes first, the peptide text is derived from it. [ ]: non-standard residue; d: D form. Sar = CNCC(=O)O
Cut-off 80 RU/sec on dR/dt on, inclusive. At or above means criterion met; below means criterion not met.

Example cases with answers are listed next.
CNC[C@H](OC)[C@H](OC)[C@H](OC)[C@H](COC)OC ... criterion met
CNCC(=O)N(C)CC(=O)N(C)CC(=O)N(C)C [H(CH3)N(Sar)3N(CH3)2] (H-[Sar]-[Sar]-[Sar]-NMe2) ... criterion not met
CC(=O)N1CCNCC1 ... criterion met
COC[C@H](OC)[C@H](OC)[C@H](OC)[C@@H](CN(C)C(=O)CCCCCCCCCCS)OC [Entry 4a] ... criterion not met
NCCOCCOCCO [Entry 3b, H(OCH2CH2)3NH2, reference compound] ... criterion met

Please tell me: is the molecule CN(CCN(C)P(=O)(N(C)C)N(C)C)C(=O)CCCCCCCCCCS [Entry 1a] at or over 80 RU/sec in terms of dR/dt on? criterion met

Please tell me: is the molecule CC(=O)N1CCN(C(=O)CCCCCCCCCCCCCCCS)CC1 [Entry 2a] at or over 80 RU/sec in terms of dR/dt on? criterion met

---

Give measured % ML 3 min for each item. Keep answers brief.
Target: lysozyme (Gallus gallus)
Sequence (P00698 19-147): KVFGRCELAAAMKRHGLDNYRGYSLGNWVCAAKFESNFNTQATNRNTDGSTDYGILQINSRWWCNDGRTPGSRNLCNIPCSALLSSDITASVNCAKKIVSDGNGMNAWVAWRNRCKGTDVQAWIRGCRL
Test: SPR adsorption of lysozyme to SAMs / grafted polymer films
Type: binding
Details: lysozyme; single-component SAMs (a) and mixed SAMs (b)
Where a SMILES comes first, the peptide text is derived from it. [ ]: non-standard residue; d: D form. Sar = CNCC(=O)O

Study these solved cases before continuing.
CC(=O)N1CCN(C(=O)CCCCCCCCCCCCCCCS)CC1 ... 0.8 ±0.3%
CNC[C@H](OC)[C@H](OC)[C@H](OC)[C@H](COC)OC ... 0.4 ±0.4%
COC[C@H](OC)[C@H](OC)[C@H](OC)[C@@H](CN(C)C(=O)CCCCCCCCCCS)OC ... 0.5 ±0.0%

Need % ML 3 min for each of these molecules.
1. OCCOCCOCCOCCCCCCCCCCCS [Entry 3a, HOEG3(CH2)11SH, reference compound]
2. NCCOCCOCCO [Entry 3b, H(OCH2CH2)3NH2, reference compound]
3. CC(=O)N1CCNCC1
4. CNCC(=O)N(C)CC(=O)N(C)CC(=O)N(C)C [H(CH3)N(Sar)3N(CH3)2] (H-[Sar]-[Sar]-[Sar]-NMe2)
5. CN(CCN(C)P(=O)(N(C)C)N(C)C)C(=O)CCCCCCCCCCS

["0.2%", "1%", "8 ±1%", "0.6%", "4.5 ±0.1%"]

---

Target: UniProt:P00698
Assay: SPR adsorption of lysozyme to SAMs / grafted polymer films
Type: binding
Conditions: lysozyme; footnote b (30 minutes); single-component SAMs (a) and mixed SAMs (b)
Where a SMILES comes first, the peptide text is derived from it. [ ]: non-standard residue; d: D form. Sar = CNCC(=O)O
Cut-off 1% on % ML 3 min, inclusive. At or above means yes (1); below means no (0).

Example cases with answers are listed next.
CNCC(=O)N(C)CC(=O)N(C)CC(=O)N(C)C [H(CH3)N(Sar)3N(CH3)2] (H-[Sar]-[Sar]-[Sar]-NMe2) ... yes (1)
CC(=O)N1CCNCC1 ... yes (1)
COC[C@H](OC)[C@H](OC)[C@H](OC)[C@@H](CN(C)C(=O)CCCCCCCCCCS)OC ... no (0)

Please tell me: is the compound OCCOCCOCCOCCCCCCCCCCCS [Entry 3a, HOEG3(CH2)11SH, reference compound] at or over 1% in terms of % ML 3 min? no (0)

Please tell me: is the compound CNC[C@H](OC)[C@H](OC)[C@H](OC)[C@H](COC)OC at or over 1% in terms of % ML 3 min? yes (1)

Please tell me: is the compound CC(=O)N1CCN(C(=O)CCCCCCCCCCCCCCCS)CC1 at or over 1% in terms of % ML 3 min? no (0)

Please tell me: is the compound CN(CCN(C)P(=O)(N(C)C)N(C)C)C(=O)CCCCCCCCCCS at or over 1% in terms of % ML 3 min? yes (1)

---

Give measured % Fib off for each item. Keep answers brief.
Target: fibrinogen (Bos taurus, UniProt P02672+P02676+P12799)
Sequence (P02672 20-615): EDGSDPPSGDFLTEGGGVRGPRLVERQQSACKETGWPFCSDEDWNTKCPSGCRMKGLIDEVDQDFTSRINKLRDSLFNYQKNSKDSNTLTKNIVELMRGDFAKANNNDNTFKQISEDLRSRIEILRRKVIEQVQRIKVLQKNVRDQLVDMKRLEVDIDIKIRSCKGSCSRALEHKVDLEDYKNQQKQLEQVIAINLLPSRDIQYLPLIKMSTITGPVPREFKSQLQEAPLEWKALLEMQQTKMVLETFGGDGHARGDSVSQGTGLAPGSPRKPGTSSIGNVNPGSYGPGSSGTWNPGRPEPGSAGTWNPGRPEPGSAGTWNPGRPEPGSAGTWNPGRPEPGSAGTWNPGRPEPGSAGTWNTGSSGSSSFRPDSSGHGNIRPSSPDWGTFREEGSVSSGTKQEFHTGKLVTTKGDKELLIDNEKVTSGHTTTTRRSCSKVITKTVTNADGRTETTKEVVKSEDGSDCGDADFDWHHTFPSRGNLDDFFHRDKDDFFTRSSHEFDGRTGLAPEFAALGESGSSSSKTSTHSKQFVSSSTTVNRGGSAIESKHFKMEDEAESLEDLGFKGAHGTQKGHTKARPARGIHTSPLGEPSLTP
Sequence (P02676 whole entry): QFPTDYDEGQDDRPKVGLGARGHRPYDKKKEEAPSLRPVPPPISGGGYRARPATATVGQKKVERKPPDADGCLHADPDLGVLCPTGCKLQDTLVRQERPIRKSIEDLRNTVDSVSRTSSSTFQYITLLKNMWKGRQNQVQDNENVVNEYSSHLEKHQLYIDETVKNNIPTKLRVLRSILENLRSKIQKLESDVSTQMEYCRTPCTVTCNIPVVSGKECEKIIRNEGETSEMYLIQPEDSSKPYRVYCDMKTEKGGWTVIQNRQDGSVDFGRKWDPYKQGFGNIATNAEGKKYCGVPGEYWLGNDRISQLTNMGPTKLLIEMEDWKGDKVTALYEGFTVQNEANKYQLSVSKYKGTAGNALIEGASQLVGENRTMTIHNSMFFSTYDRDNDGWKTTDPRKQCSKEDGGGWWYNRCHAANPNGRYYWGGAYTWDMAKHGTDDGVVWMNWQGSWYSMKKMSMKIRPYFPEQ
Sequence (P12799 25-444): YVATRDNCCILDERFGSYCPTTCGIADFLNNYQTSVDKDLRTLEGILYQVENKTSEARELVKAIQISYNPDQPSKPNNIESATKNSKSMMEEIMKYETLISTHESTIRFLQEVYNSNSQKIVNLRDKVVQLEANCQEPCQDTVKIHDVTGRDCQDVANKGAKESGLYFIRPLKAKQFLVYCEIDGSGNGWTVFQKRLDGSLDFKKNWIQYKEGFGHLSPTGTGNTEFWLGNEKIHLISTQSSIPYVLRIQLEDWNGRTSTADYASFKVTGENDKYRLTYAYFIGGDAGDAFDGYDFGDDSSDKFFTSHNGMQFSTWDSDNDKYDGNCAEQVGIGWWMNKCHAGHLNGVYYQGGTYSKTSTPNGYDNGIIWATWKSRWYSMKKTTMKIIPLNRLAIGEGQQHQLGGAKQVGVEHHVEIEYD
Test: SPR adsorption of fibrinogen to SAMs / grafted polymer films
Format: binding, bovine
Settings: single-component SAMs (a) and mixed SAMs (b)
Numbers only, in %.

Study these solved cases before continuing.
CN(CCN(C)P(=O)(N(C)C)N(C)C)C(=O)CCCCCCCCCCS ... 29
CNC[C@H](OC)[C@H](OC)[C@H](OC)[C@H](COC)OC ... 18
CC(=O)N1CCNCC1 ... 12
NCCOCCOCCO [Entry 3b, H(OCH2CH2)3NH2, reference compound] ... 11
CC(=O)N1CCN(C(=O)CCCCCCCCCCCCCCCS)CC1 ... 6.8

# evaluate next
Which % Fib off is reported for this molecule? COC[C@H](OC)[C@H](OC)[C@H](OC)[C@@H](CN(C)C(=O)CCCCCCCCCCS)OC 66

---

Biological target: fibrinogen (Bos taurus, UniProt P02672+P02676+P12799)
Experiment: SPR adsorption of fibrinogen to SAMs / grafted polymer films
Format: binding, bovine
Settings: mixed SAM —CONRR′/—CO2H; 1 mg/mL fibrinogen flowed 30 min
Where a SMILES comes first, the peptide text is derived from it. [ ]: non-standard residue; d: D form. Sar = CNCC(=O)O
measure: % MLfib 30 min (%)
Answers are plain numbers, in %.

Study these solved cases before continuing.
C1COCCOCCOCCOCCOCCN1 ... 11
CNCC(=O)N(C)CC(=O)N(C)CC(=O)N(C)C [H(CH3)N(Sar)3N(CH3)2] (H-[Sar]-[Sar]-[Sar]-NMe2) ... 2.0
CNCC(=O)N(C)C ... 9.1

# evaluate next
Which % MLfib 30 min is reported for this molecule? CNCCN(C)C(C)=O 12

---

Target: lysozyme (Gallus gallus)
Assay: SPR adsorption of lysozyme to SAMs / grafted polymer films
Type: binding
Details: mixed SAM —CONRR′/—CO2H; 1 mg/mL lysozyme flowed 3 min
Label met when % MLlys 3 min is strictly below 4%; at or above that, label not met.

Strictly below 4%: is that where % MLlys 3 min of Nc1ccc(O[C@@H]2O[C@H](CO)[C@@H](O)[C@H](O)[C@H]2O)cc1 sits? not met

---

Molecular target: fibrinogen (Bos taurus, UniProt P02672+P02676+P12799)
Assay: SPR adsorption of fibrinogen to SAMs / grafted polymer films
Assay type: binding, bovine
Conditions: fibrinogen; single-component SAMs (a, RSH) and mixed SAMs (b, RNH2)
Cut-off 0.8% on % ML 3 min, inclusive. At or above means true; below means false.

Please tell me: is the compound NCCOCCOCCO [Entry 3b, H(OCH2CH2)3NH2, reference compound] at or over 0.8% in terms of % ML 3 min? true

Please tell me: is the compound CC(=O)N1CCN(C(=O)CCCCCCCCCCCCCCCS)CC1 at or over 0.8% in terms of % ML 3 min? false

---

Biological target: fibrinogen (Bos taurus, UniProt P02672+P02676+P12799)
Experiment: SPR adsorption of fibrinogen to SAMs / grafted polymer films
Type: binding, bovine
Conditions: mixed SAM —CONRR′/—CO2H
Where a SMILES comes first, the peptide text is derived from it.
measure: % Fiboff (percent decrease in adsorbed protein during 10 minute PBS wash) (%)
One number for each entry, in %.

Study these solved cases before continuing.
CC(=O)CCN ... 16
O=CN1CCNCC1 ... 10
C[N+](C)(C)CCN.[Cl-] ... 6.2

Need % Fiboff (percent decrease in adsorbed protein during 10 minute PBS wash) for each of these compounds.
1. N[C@H]1C(O)O[C@H](CO)[C@@H](O)[C@@H]1O (some centres unmarked)
2. N#CCC(N)=C(C#N)C#N
3. CNCCNC
4. CC(=O)N1CCNCC1
5. Nc1ccc(O[C@@H]2O[C@H](CO)[C@@H](O[C@@H]3O[C@H](CO)[C@H](O)[C@H](O)[C@H]3O)[C@H](O)[C@H]2O)cc1
6. CN(C)C(=O)CNC(=O)CNC(=O)CN [H2N(Gly)3N(CH3)2] (H-Gly-Gly-Gly-NMe2)
7. CNCCN(C)C(=O)OC

1. 11
2. 11
3. 7.5
4. 12
5. 7.4
6. 21
7. 20

Need % Fiboff (percent decrease in adsorbed protein during 10 minute PBS wash) for each of these compounds.
1. Nc1ccc(O[C@@H]2O[C@H](CO)[C@@H](O)[C@H](O)[C@H]2O)cc1
2. CN1CCNCC1
3. NC[C@H](O)[C@H](O)[C@H](O)[C@@H](O)CO
4. OCCOCCN1CCNCC1
5. CNCCN(C)C

[38, 1.0, 4.8, 1.8, 13]

Need % Fiboff (percent decrease in adsorbed protein during 10 minute PBS wash) for each of these compounds.
1. CN(C)C(=O)CN
2. CNC[C@H](OC)[C@H](OC)[C@H](OC)[C@H](COC)OC
3. CNCCN(C)P(=O)(N(C)C)N(C)C
4. NCC1COCCOCCOCCOCCOCCO1 (centres unmarked)
5. NC(CCCO)(CCCO)CCCO

1. 19
2. 18
3. 19
4. 9.7
5. 14
